assay: Fraction unbound in human at 120 mg, po; type: ADME, organism-based; conditions: in vivo
value.type: fraction unbound
The answer should be written as a number, with no unit following it.

Request: May I ask what fraction unbound has been recorded for "COc1ccc([C@@H]2Sc3ccccc3N(CCN(C)C)C(=O)[C@@H]2OC(C)=O)cc1" ?
Response: 0.25

---

test: physchem
Description: Dissociation constant, pKa of the compound
Catalogue of pKa values
The answer should be written as a number, with no unit following it.

Request: May I ask what pKa has been recorded for CCCSc1nc(N[C@@H]2C[C@H]2c2ccc(F)c(F)c2)c2nnn([C@@H]3C[C@H](OCCO)[C@@H](O)[C@H]3O)c2n1 [TICAGRELOR] ?
Response: 14.3

Request: May I ask what pKa has been recorded for COc1ccc2[nH]c([S+]([O-])Cc3ncc(C)c(OC)c3C)nc2c1 (stereo not given) [OMEPRAZOLE] ?
Response: 13.2

Request: May I ask what pKa has been recorded for CN1CCN(c2ccccc2/C=C2\SCCN(c3ccc(Cl)c(Cl)c3)C2=O)CC1 [ELZASONAN] ?
Response: 11.5

Request: May I ask what pKa has been recorded for COCc1c(C(C)C)nc(C(C)C)c(/C=C/[C@@H](O)C[C@@H](O)CC(=O)O)c1-c1ccc(F)cc1 [CERIVASTATIN] ?
Response: 14.4

Request: May I ask what pKa has been recorded for CC(C)CCC(=O)CC1c2ccccc2C(=O)N1c1ccc2ccc(Cl)nc2n1 (stereo not given) [PAGOCLONE] ?
Response: 15

---
Request: May I ask what pKa has been recorded for CNCC[C@H](Oc1cccc2ccccc12)c1cccs1 [DULOXETINE] ?
Response: 9.97

Request: May I ask what pKa has been recorded for CC(C)(C)c1ccc(C(O)CCCN2CCC(C(O)(c3ccccc3)c3ccccc3)CC2)cc1 (stereo not given) [TERFENADINE] ?
Response: 15

Request: May I ask what pKa has been recorded for CCc1cccc2cc(C(O)CNC(C)(C)C)oc12 (stereo not given) [BUFURALOL] ?
Response: 14.3

Request: May I ask what pKa has been recorded for "CCOc1cc([C@@H](CS(C)(=O)=O)N2C(=O)c3cccc(NC(C)=O)c3C2=O)ccc1OC" ?
Response: 9.8

Request: May I ask what pKa has been recorded for CN1C2CCCC1CC(NC(=O)c1nn(C)c3ccccc13)C2 (stereo not given) [GRANISETRON] ?
Response: 8.9

Request: May I ask what pKa has been recorded for COc1ccc2c3c1O[C@H]1[C@@H](O)C=C[C@H]4[C@@H](C2)N(C)CC[C@@]341 [CODEINE] ?
Response: 9.48

Request: May I ask what pKa has been recorded for OCCOCCN1CCN(C2=Nc3ccccc3Sc3ccccc32)CC1 [QUETIAPINE] ?
Response: 11.2

Request: May I ask what pKa has been recorded for CCOc1cc(CC(=O)N[C@@H](CC(C)C)c2ccccc2N2CCCCC2)ccc1C(=O)O [REPAGLINIDE] ?
Response: 14.8

Request: May I ask what pKa has been recorded for COc1ccc(C(=O)Nc2ccccc2CCC2CCCCN2C)cc1 (stereo not given) [ENCAINIDE] ?
Response: 8.34
